# Experimental Target: T1, human thrombin receptor (human, UniProt P25116 42-425)
# T1 chain: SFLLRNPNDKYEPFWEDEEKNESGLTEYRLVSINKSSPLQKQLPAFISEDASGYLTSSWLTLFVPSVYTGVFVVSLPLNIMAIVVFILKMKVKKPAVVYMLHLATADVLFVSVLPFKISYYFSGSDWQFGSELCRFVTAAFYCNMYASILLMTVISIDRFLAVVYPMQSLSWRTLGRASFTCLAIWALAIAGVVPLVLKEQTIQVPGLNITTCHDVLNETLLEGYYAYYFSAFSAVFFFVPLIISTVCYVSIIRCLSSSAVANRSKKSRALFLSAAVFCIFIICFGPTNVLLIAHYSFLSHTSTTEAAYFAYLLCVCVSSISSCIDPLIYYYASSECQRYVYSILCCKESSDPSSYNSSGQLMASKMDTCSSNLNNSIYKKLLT
# Protocol Description: cell-based or functional assay
Square brackets hold non-standard residues; d marks the D form. Ends that are not written are not given here. Cha = N[C@@H](CC1CCCCC1)C(=O)O
Measured Metric: EC50 (concentration required to elicit a 50% maximal aggregation), platelet aggregation (nM)
I only need the number, in nM, no unit after it.

Write down EC50 (concentration required to elicit a 50% maximal aggregation), platelet aggregation measured for item XFLLR (b-Ala at position 1; C-terminal amide (NH2)) [[b-Ala]-FLLR-NH2]
99000

Write down EC50 (concentration required to elicit a 50% maximal aggregation), platelet aggregation measured for item SFALRNPNDKYE
20700

Write down EC50 (concentration required to elicit a 50% maximal aggregation), platelet aggregation measured for item SFLLRN-NH2 [SFLLRN-NH2]
1600

Write down EC50 (concentration required to elicit a 50% maximal aggregation), platelet aggregation measured for item SF[Cha]LR-NH2 (N-terminus assumed; SMILES CC(C)C[C@H](NC(=O)[C@H](CC1CCCCC1)NC(=O)[C@H](Cc1ccccc1)NC(=O)[C@@H](N)CO)C(=O)N[C@@H](CCCNC(=N)N)C(N)=O) [SF(Cha)LR-NH2]
1500

Write down EC50 (concentration required to elicit a 50% maximal aggregation), platelet aggregation measured for item SF[Cha][Cha]RN-NH2 (N-terminus assumed; SMILES N=C(N)NCCC[C@H](NC(=O)[C@H](CC1CCCCC1)NC(=O)[C@H](CC1CCCCC1)NC(=O)[C@H](Cc1ccccc1)NC(=O)[C@@H](N)CO)C(=O)N[C@@H](CC(N)=O)C(N)=O) [SF(Cha) (Cha)RN-NH2]
1100
